Numbers sourced from PubChem BioAssay (NCI).

assay: NCI Yeast Anticancer Drug Screen. Data for the sgs1 mgt1 strain (AID 161);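 further: 0% = growth of cultures given vehicle only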; conditions: S. cerevisiae sgs1 mgt1 strain, at 50.0 µM, hits give high values
The panel holds about 79,000 compounds, 15% with a hit somewhere; the sample as a whole holds those more often.
Kindly supply the reported growth inhibition values for the records listed here.
One number for each entry, in %.

The cases that follow already have their growth inhibition on record.
| molecule | growth inhibition / % |
| --- | --- |
| Cc1nn(C(=O)c2ccc(Cl)cc2)c2c1C(c1ccccc1[N+](=O)[O-])SC(N)=N2 (configuration not stated) | 7.05 |
| O=c1nc(NCCc2c[nH]c3ccccc23)ccn1C1OC(CO)C(O)C1O (configuration not stated) | 2.35 |
| Cc1ccc(S(=O)(=O)C(=S)SCc2ccccc2)cc1 | 59 |

The following molecules each have a reported value; give each one's growth inhibition.
1. COC(=O)C1=C(C(=O)OC)N(C(C)C)[C@H]2C(C(=O)OC)=C(C(=O)OC)N(C(C)C)[C@@H]12
2. COC(=O)C[CH2][Ge]([CH3])([CH3])[S]c1ccccc1

Ans.
1. -19.4
2. 34.1

List reported growth inhibition for each of these molecules:
1. COc1ccc2nc3cc(Cl)ccc3c(NCCNCC(C)(C)O)c2c1
2. N#CCCN(CCC#N)C(=O)Nc1cccc2ccccc12
3. Cc1c(O)ccc(N=O)c1O
4. O=C(O)C(Cc1cccs1)C(=O)OCCc1ccccc1 (configuration not stated)
5. Cc1ccc(NC(=O)CCCC(=O)CC(=O)c2ccc(Br)cc2)cc1
6. Cc1ccccc1NCC#N

Ans.
1: 18.5; 2: 5.7; 3: 18.9; 4: 1.05; 5: -40.4; 6: -19.2

Would you be so kind as to report growth inhibition for each listed record?
1. C[S+](C)CCOC(=O)C(=[N+]=[N-])c1ccc([N+](=O)[O-])cc1
2. CC(C)c1cccc(C(C)C)c1NC(=O)C(=O)C(C(=O)c1ccccc1-c1ccccc1)C1OC(=O)c2ccccc21 (configuration not stated)
3. CCOC(=O)C(=[N+]=[N-])C(O)C1OC(c2ccccc2)OCC1O (configuration not stated)
4. CN(C)CCOC(=O)C(C)(C)Sc1ccc(Cl)cc1

Ans.
44.3
19.6
18.9
26.4

Parameters: items (list). Returns: growth inhibition for each item.
1. CCN(CC)c1nc(=O)c(C(=O)C(C)(C)C)c(C(C)(C)C)o1
2. COC(=O)c1cc(-c2cccc3ccccc23)[nH]c(=O)c1C#N
3. CC(=O)OCC(=O)C1(O)CCC2C3CCC4=CC(=O)CCC4(C)C3(SC#N)CC(=O)C21C (configuration not stated)
4. N#CCCN(C1=NN(C(=O)CC(=O)Nc2ccccc2)C(c2ccccc2)C1)c1ccccc1Cl (configuration not stated)
5. O=C1C=CC(c2ccccc2)(c2ccccc2)O1

Ans.
-34.1
17.6
27.2
-36
-15.3

For every listed record, write down its growth inhibition.
1. Cc1ccc(C(=O)/C(C#N)=C/Nc2c(C)n(C)n(-c3ccccc3)c2=O)cc1
2. CC(=O)c1ccc2c(ccc3ccccc32)c1O

Ans.
[20.1, -3.65]
